# Test system: Escherichia coli TOP10
# assay_info: shrunken log2 fold change of peptide-encoding DNA abundance (4.5 h post-induction vs induction); higher = less antimicrobial activity (less host growth inhibition)
# test_settings: time post-induction: 4.5 h; library: site-saturation at positions 5, 18, 19, 20
Note to self: values exactly at -0.2 are yes (1). So shrunken log2 fold change at or above -0.2 is yes (1), below is no (0).

[[record]]
monomer_sequence = "RRIRPRPPRLPRPRPRPNNCPRP"
assigned_class = "yes (1)"

[[record]]
monomer_sequence = "RRIRYRPPRLPRPRPRPVDCPRP"
assigned_class = "yes (1)"

[[record]]
monomer_sequence = "RRIRARPPRLPRPRPRPLTMPRP"
assigned_class = "yes (1)"


Confirm if shrunken log2 fold change reported for the sequence "RRIRSRPPRLPRPRPRPQECPRP" is -0.2 or above.
yes (1)

Further, for "RRIRIRPPRLPRPRPRPIILPRP" ?
no (0)

Further, for "RRIRYRPPRLPRPRPRPCGWPRP" ?
yes (1)

Further, for "RRIRTRPPRLPRPRPRPPHWPRP" ?
yes (1)

Further, for "RRIRSRPPRLPRPRPRPDDYPRP" ?
yes (1)

Further, for "RRIRLRPPRLPRPRPRPHLTPRP" ?
no (0)

* * *

# System: Escherichia coli TOP10
# assay_info: shrunken log2 fold change of peptide-encoding DNA abundance (4.5 h post-induction vs induction); higher = less antimicrobial activity (less host growth inhibition)
# test_settings: time post-induction: 4.5 h; library: site-saturation at positions 5, 18, 19, 20
endpoint: shrunken log2 fold change
No unit in the answer, only the number.

Below, 6 sequences whose answers are already recorded.
[[record]]
monomer_sequence = "RRIRMRPPRLPRPRPRPPKVPRP"
system = "Escherichia coli TOP10"
endpoint = "shrunken log2 fold change"
measured_number = 0.272

[[record]]
monomer_sequence = "RRIRFRPPRLPRPRPRPGGKPRP"
system = "Escherichia coli TOP10"
endpoint = "shrunken log2 fold change"
measured_number = 0.228

[[record]]
monomer_sequence = "RRIRLRPPRLPRPRPRPQCTPRP"
system = "Escherichia coli TOP10"
endpoint = "shrunken log2 fold change"
measured_number = 0.0199

[[record]]
monomer_sequence = "RRIRHRPPRLPRPRPRPWVDPRP"
system = "Escherichia coli TOP10"
endpoint = "shrunken log2 fold change"
measured_number = 0.0471

[[record]]
monomer_sequence = "RRIRMRPPRLPRPRPRPKKSPRP"
system = "Escherichia coli TOP10"
endpoint = "shrunken log2 fold change"
measured_number = 1.18

[[record]]
monomer_sequence = "RRIRDRPPRLPRPRPRPAIEPRP"
system = "Escherichia coli TOP10"
endpoint = "shrunken log2 fold change"
measured_number = 0.0117


Look at this sequence and give its reported shrunken log2 fold change. "RRIRSRPPRLPRPRPRPLAWPRP"
0.402

Further, for "RRIRFRPPRLPRPRPRPTLIPRP" ?
-0.19

Further, for "RRIRHRPPRLPRPRPRPAELPRP" ?
-0.00261

* * *

# Tested on: Escherichia coli TOP10
# assay_info: shrunken log2 fold change of peptide-encoding DNA abundance (4.5 h post-induction vs induction); higher = less antimicrobial activity (less host growth inhibition)
# test_settings: time post-induction: 4.5 h; library: site-saturation at positions 5, 18, 19, 20
Note to self: values exactly at 0.09 are satisfied. So shrunken log2 fold change at or above 0.09 is satisfied, below is not satisfied.

Recorded results for 3 sequences are shown here.
[[record]]
monomer_sequence = "RRIRARPPRLPRPRPRPIMSPRP"
system = "Escherichia coli TOP10"
assigned_class = "not satisfied"

[[record]]
monomer_sequence = "RRIRNRPPRLPRPRPRPDSIPRP"
system = "Escherichia coli TOP10"
assigned_class = "not satisfied"

[[record]]
monomer_sequence = "RRIRMRPPRLPRPRPRPRWHPRP"
system = "Escherichia coli TOP10"
assigned_class = "satisfied"


Confirm if shrunken log2 fold change reported for the sequence "RRIRARPPRLPRPRPRPSGQPRP" is 0.09 or above.
satisfied

Further, for "RRIRNRPPRLPRPRPRPLIWPRP" ?
not satisfied

Further, for "RRIRIRPPRLPRPRPRPFDIPRP" ?
not satisfied

Further, for "RRIRERPPRLPRPRPRPWDCPRP" ?
not satisfied

Further, for "RRIRKRPPRLPRPRPRPELVPRP" ?
satisfied

* * *

Known shrunken log2 fold change of a selection of sequences
# Tested on: Escherichia coli TOP10
# assay_info: shrunken log2 fold change of peptide-encoding DNA abundance (4.5 h post-induction vs induction); higher = less antimicrobial activity (less host growth inhibition)
# test_settings: time post-induction: 4.5 h; library: site-saturation at positions 5, 18, 19, 20
No unit in the answer, only the number.

[[record]]
monomer_sequence = "RRIRQRPPRLPRPRPRPNSQPRP"
endpoint = "shrunken log2 fold change"
measured_number = 0.229


Look at this sequence and give its reported shrunken log2 fold change. "RRIRPRPPRLPRPRPRPYGEPRP"
0.0864

Further, for "RRIRLRPPRLPRPRPRPISTPRP" ?
-0.161

Further, for "RRIRGRPPRLPRPRPRPECFPRP" ?
1.92

Further, for "RRIRARPPRLPRPRPRPGALPRP" ?
1.22

Further, for "RRIRTRPPRLPRPRPRPPFLPRP" ?
0.207

Further, for "RRIRERPPRLPRPRPRPFRNPRP" ?
-0.105

Further, for "RRIRDRPPRLPRPRPRPAEMPRP" ?
0.515

Further, for "RRIRVRPPRLPRPRPRPSTRPRP" ?
0.552

Further, for "RRIRARPPRLPRPRPRPCQEPRP" ?
0.094

Further, for "RRIRMRPPRLPRPRPRPYFQPRP" ?
-0.759

Further, for "RRIRTRPPRLPRPRPRPNTCPRP" ?
-0.395

Further, for "RRIRERPPRLPRPRPRPYAVPRP" ?
-0.441

Further, for "RRIRLRPPRLPRPRPRPLSTPRP" ?
-0.471

Further, for "RRIRARPPRLPRPRPRPCSRPRP" ?
0.21

Further, for "RRIRNRPPRLPRPRPRPEAAPRP" ?
0.902

Further, for "RRIRCRPPRLPRPRPRPPLSPRP" ?
0.312

* * *

# Test system: Escherichia coli TOP10
# assay_info: shrunken log2 fold change of peptide-encoding DNA abundance (4.5 h post-induction vs induction); higher = less antimicrobial activity (less host growth inhibition)
# test_settings: time post-induction: 4.5 h; library: site-saturation at positions 5, 18, 19, 20
So basically every entry gets a class from its shrunken log2 fold change, ranges being bottom range (below -0.2), center range (-0.2 to below 0.04), top range (0.04 or more)

Recorded results for 6 sequences are shown here.
[[record]]
monomer_sequence = "RRIRDRPPRLPRPRPRPIVEPRP"
system = "Escherichia coli TOP10"
assigned_class = "top range"

[[record]]
monomer_sequence = "RRIRYRPPRLPRPRPRPEYFPRP"
system = "Escherichia coli TOP10"
assigned_class = "bottom range"

[[record]]
monomer_sequence = "RRIRPRPPRLPRPRPRPRFPPRP"
system = "Escherichia coli TOP10"
assigned_class = "top range"

[[record]]
monomer_sequence = "RRIRRRPPRLPRPRPRPKGVPRP"
system = "Escherichia coli TOP10"
assigned_class = "top range"

[[record]]
monomer_sequence = "RRIRMRPPRLPRPRPRPYYKPRP"
system = "Escherichia coli TOP10"
assigned_class = "bottom range"

[[record]]
monomer_sequence = "RRIRPRPPRLPRPRPRPLIGPRP"
system = "Escherichia coli TOP10"
assigned_class = "center range"


# bin label for "RRIRFRPPRLPRPRPRPWMMPRP"
bottom range

Further, for "RRIRARPPRLPRPRPRPTIVPRP" ?
center range

Further, for "RRIRWRPPRLPRPRPRPGKHPRP" ?
center range

Further, for "RRIRPRPPRLPRPRPRPLCIPRP" ?
bottom range

Further, for "RRIRLRPPRLPRPRPRPDQAPRP" ?
center range

Further, for "RRIRNRPPRLPRPRPRPMRMPRP" ?
center range

* * *

# System: Escherichia coli TOP10;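 also: peptides expressed intracellularly from a pBAD plasmid library in pooled LB shake-flask culture, induced with 0.3% L-arabinose, DNA abundance read by NGS, three biological replicates, DESeq2 with apeglm shrinkage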
# assay_info: shrunken log2 fold change of peptide-encoding DNA abundance (4.5 h post-induction vs induction); higher = less antimicrobial activity (less host growth inhibition)
# test_settings: time post-induction: 4.5 h; library: site-saturation at positions 5, 18, 19, 20
Note to self: values exactly at -0.007 are true (1). So shrunken log2 fold change at or above -0.007 is true (1), below is false (0).

Recorded results for 8 sequences are shown here.
[[record]]
monomer_sequence = "RRIRNRPPRLPRPRPRPWVDPRP"
assigned_class = "false (0)"

[[record]]
monomer_sequence = "RRIRERPPRLPRPRPRPEDPPRP"
assigned_class = "false (0)"

[[record]]
monomer_sequence = "RRIRHRPPRLPRPRPRPWSAPRP"
assigned_class = "false (0)"

[[record]]
monomer_sequence = "RRIRKRPPRLPRPRPRPANRPRP"
assigned_class = "true (1)"

[[record]]
monomer_sequence = "RRIRTRPPRLPRPRPRPLAYPRP"
assigned_class = "false (0)"

[[record]]
monomer_sequence = "RRIRGRPPRLPRPRPRPGTFPRP"
assigned_class = "true (1)"

[[record]]
monomer_sequence = "RRIRYRPPRLPRPRPRPQPAPRP"
assigned_class = "true (1)"

[[record]]
monomer_sequence = "RRIRVRPPRLPRPRPRPPERPRP"
assigned_class = "true (1)"


Confirm if shrunken log2 fold change reported for the sequence "RRIRVRPPRLPRPRPRPPMFPRP" is -0.007 or above.
false (0)

Further, for "RRIRMRPPRLPRPRPRPNPMPRP" ?
true (1)

Further, for "RRIRNRPPRLPRPRPRPKILPRP" ?
true (1)
